# Target Or Test System: RAC-alpha serine/threonine-protein kinase (Homo sapiens)
# Experimental Details: Inhibition of AKT1 (unknown origin) at 10 uM after 30 mins by fluorescence assay
Recorded Endpoint: inhibition (%)

| Smiles Code | Result Units | Result |
| --- | --- | --- |
| O=C(Nc1cc(Sc2ncn[nH]2)c(O)c2ccccc12)c1ccc2ccccc2c1 | % | 41.6 |
| O=C(/C=C/c1ccc(Cl)cc1)Nc1cc(Sc2ncn[nH]2)c(O)c2ccccc12 | % | 31.8 |
| O=C(Nc1cc(Sc2ncnc3nc[nH]c23)c(O)c2ccccc12)c1ccc(Cl)cc1 | % | 21.7 |
| COc1cccc(C(=O)Nc2cc(Sc3ncn[nH]3)c(O)c3ccccc23)c1 | % | 19.4 |
| COc1ccc(/C=C/C(=O)Nc2cc(Sc3ncn[nH]3)c(O)c3ccccc23)cc1OC | % | 31.6 |
| O=C(Nc1cc(Sc2nncs2)c(O)c2ccccc12)c1ccc(Cl)cc1 | % | 7.5 |
| O=C(Nc1cc(Sc2ncnc3nc[nH]c23)c(O)c2ccccc12)c1ccccc1[N+](=O)[O-] | % | 50.7 |
| Cc1cccc(C(=O)Nc2cc(Sc3ncn[nH]3)c(O)c3ccccc23)c1 | % | 20.2 |
| Cc1nnc(Sc2cc(NC(=O)c3ccc(Cl)cc3)c3ccccc3c2O)s1 | % | 8.48 |
| COc1ccc(C(=O)Nc2cc(Sc3ncn[nH]3)c(O)c3ccccc23)cc1 | % | 30.8 |
